Reported kon is given for each of the following binders.
Target: T1, human IL-33 (R&D Systems, #3625-IL-010/CF) (human, UniProt O95760 112-270)
T1 construct: Commercial recombinant protein; also called hIL-33; interleukin-33
T1 sequence (looked up): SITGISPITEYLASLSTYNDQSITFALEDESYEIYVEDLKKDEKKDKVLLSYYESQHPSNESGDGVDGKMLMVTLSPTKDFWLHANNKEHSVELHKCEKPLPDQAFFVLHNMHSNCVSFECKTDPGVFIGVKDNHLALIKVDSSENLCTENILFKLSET
Test: SPR 25C pH7.4, mAb captured
API: value field is a number in M⁻¹ s⁻¹; no unit string.

Noted for H4H9676P (antibody, human IgG4, V domains shown, Human IgG4 Fc (H4H)) VH: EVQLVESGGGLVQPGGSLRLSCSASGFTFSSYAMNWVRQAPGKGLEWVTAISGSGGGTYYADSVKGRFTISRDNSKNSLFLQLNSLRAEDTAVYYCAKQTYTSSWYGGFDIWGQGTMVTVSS VL: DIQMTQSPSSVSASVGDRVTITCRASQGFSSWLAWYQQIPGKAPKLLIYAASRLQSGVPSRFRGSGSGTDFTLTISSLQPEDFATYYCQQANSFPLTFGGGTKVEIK : its kon reads 1.03e+06

# kon (binder: H4H9670P (antibody, V domains shown, Human IgG4 Fc (H4H)) VH: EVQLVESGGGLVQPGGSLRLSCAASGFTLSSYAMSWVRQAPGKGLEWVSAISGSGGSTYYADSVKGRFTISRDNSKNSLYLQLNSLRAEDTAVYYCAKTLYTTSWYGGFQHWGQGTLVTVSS VL: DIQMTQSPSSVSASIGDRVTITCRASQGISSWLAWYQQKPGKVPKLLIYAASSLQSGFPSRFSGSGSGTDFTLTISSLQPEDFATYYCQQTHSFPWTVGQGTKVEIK ) is 786000

# binder H4H9629P (antibody, human IgG4, V domains shown, Human IgG4 Fc (H4H)) VH: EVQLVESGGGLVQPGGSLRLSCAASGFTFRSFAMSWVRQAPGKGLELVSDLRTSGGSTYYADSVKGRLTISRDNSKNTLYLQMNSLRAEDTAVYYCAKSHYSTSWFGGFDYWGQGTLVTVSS VL: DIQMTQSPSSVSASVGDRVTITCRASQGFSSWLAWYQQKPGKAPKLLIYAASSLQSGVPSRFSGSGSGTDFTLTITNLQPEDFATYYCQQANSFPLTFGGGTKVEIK ; its kon = 777000

The binder listed as H4H9662P (antibody, V domains shown, Human IgG4 Fc (H4H)) VH: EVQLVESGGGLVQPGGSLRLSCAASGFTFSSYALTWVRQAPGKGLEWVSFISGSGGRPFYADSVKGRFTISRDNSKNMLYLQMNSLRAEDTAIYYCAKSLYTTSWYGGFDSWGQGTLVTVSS VL: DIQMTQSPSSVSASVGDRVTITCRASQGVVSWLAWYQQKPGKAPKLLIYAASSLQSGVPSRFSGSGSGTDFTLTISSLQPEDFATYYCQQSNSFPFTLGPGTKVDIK shows kon equal to 811000

Next:
Memo: H4H9675P (antibody, human IgG4, V domains shown, Human IgG4 Fc (H4H)) VH: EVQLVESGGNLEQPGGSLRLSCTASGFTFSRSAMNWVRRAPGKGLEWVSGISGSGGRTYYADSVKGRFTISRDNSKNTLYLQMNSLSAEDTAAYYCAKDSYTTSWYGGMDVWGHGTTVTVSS VL: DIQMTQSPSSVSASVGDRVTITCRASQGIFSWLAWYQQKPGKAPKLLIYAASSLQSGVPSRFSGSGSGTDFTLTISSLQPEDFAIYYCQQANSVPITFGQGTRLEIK , reported kon: 1.02e+06
